Attribution: paper PMC4335062

STUDY SYSTEM: ATF6 (Homo sapiens)
Sequence (P18850 306-369 limits assumed): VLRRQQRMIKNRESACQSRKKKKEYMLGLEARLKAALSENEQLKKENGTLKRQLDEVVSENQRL
TEST DETAILS: Direct-binding FRET assay
Design: made in house
CONDITION SUMMARY: 23°C; N-terminal rhodamine design; mean or single
Where no end group is shown, it is not given here.
QUANTITY KIND: Kd

Exercise: Need Kd of SIAATLEKEEANLEKMNKKLAAEIESLLKEKDKLESVLNYHE [JUN-d1] , thanks.
Solution: > 1 µM

----------
STUDY SYSTEM: MAFF (Homo sapiens)
Construct: made in house
Sequence (Q9ULX9 51-114 limits assumed): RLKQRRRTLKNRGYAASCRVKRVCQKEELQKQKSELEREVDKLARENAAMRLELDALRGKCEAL
TEST DETAILS: Direct-binding FRET assay
CONDITION SUMMARY: 23°C; C-terminal rhodamine design; mean or single; read-out: Kd
Where no end group is shown, it is not given here.
Attribute: Kd

# SEQ STRING, Kd
rows = [
    ("KRIAYLRQRIAELRNENHVLESRIQRMEKEKDALQQDRDHLEYEL [ATF5-d1]", "> 5000 nM"),
]

// switching to the query sequence
Exercise: Need Kd of EREAQLENRVAHLKEKNQELKAQNLHLKEALSEAQNRNQELKNDA [XBP1-d1] , thanks.
Solution: > 1000 nM
